I'd appreciate it if you could supply EC50 values for the items below.
- System: cellular pERK in MIA-PaCa-2 (KRAS-G12C) cell-line
- assayOverview: Cell based pERK assay (HTRF), MIA-PaCa-2
- reportedConditions: MIA-PaCa-2 (KRAS-G12C) cells, 2 hours incubation; read-out: MIAPaCa2 pERK EC50

// below: answered compounds
Q: Entry CCc1c(F)ccc2cc(O)cc(-c3nc4c5c(nc(OC[C@@]67CCCN6C[C@H](F)C7)nc5c3F)N3CCCCC3(C)CC4)c12 (stereo partly drawn) has what EC50?
A: > 1000 nM

Q: // query: C#Cc1c(F)ccc2cc(O)cc(-c3c(F)c4c5c(nc(OC[C@@]67CCCN6C[C@H](F)C7)nc5c3F)N3CCCOC[C@@H]3CC4)c12 (atropisomer, axis not shown) [Example 24-2]
A: 0.82 nM

# input for lookup
Q: # query: EC50 of entry C#Cc1c(F)ccc2cc(O)cc(-c3nc4c5c(nc(OC[C@@]67CCCN6C[C@H](F)C7)nc5c3F)N3CCCCC3CCn3nncc3-4)c12 (mixture of isomers)
A: > 1000 nM
